These data points were gathered from patent US12274702B2.

- Protocol summary: Pharmacokinetics after intranasal administration in rabbits
- Type: in vivo, New Zealand white rabbits
- Condition context: male, New Zealand white, inhaled or intranasal; single intranasal administration of 1.5 mg (250 μL, 0.6% w/v), rabbit plasma; read-out: time to reach peak concentration (Tmax)
Metric name: Tmax (min)
Answers are plain numbers, in min.

Query block: State the recorded Tmax for this entry: CN(C)CC/C=C1/c2ccccc2COc2ccc(CC(=O)O)cc21 [olopatadine]
Result block: 22.8
